Target: PD-1/PD-L1 interaction (PD-1-Ig / PD-L1-His) (Homo sapiens (Human), UniProt Q9NZQ7)
Sequence (Q9NZQ7 other isoform, or with tags, fused parts or gaps): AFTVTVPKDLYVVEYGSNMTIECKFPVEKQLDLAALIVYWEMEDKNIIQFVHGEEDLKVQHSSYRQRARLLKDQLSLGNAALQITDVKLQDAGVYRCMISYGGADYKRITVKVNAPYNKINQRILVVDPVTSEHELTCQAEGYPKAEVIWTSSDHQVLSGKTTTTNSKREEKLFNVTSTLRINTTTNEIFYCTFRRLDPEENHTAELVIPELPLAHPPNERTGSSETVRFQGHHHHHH
Test: PD-1/PD-L1 Homogenous Time-Resolved Fluorescence (HTRF) binding assay
Conditions: PD-1/PD-L1 HTRF binding assay; value given as range class; read-out: Range or IC50
pIC50: −log10 of the molar value.
Consider the following molecules and their measured pIC50 readings.

>>> meas_value("Cc1c(COc2cc(OCc3cncc(C#N)c3)c(CN[C@@H](CCCCN)C(=O)O)cc2Cl)cccc1-c1ccc2c(c1)OCCO2")
"8.00 to 9.22"

**Query** Quick one: pIC50 of `COc1cc(COc2cc(OCc3cccc(-c4ccc5c(c4)OCCO5)c3C)c(Cl)cc2CN[C@@](C)(CO)C(=O)O)ccn1` ?
**Result** 8.00 to 9.22
